meta.source: paper PMC6234480

# measurement.target: recombinant rat MMP9 (rat pro‐MMP9) (rat) (UniProt P50282)
The entries below come with measured IC50 of inhibition of rat MMP9 activity (cleavage of 5-FAM/QXL 520 FRET peptide, 37°C) values attached.
State the answer as a number, implicitly in nM.

A selection of reference data follows.
binder	observed
v82‐HSA (TIMP3v82 fused with human serum albumin) (protein, additional glycosylation sites) CTCSPSHPQDAFCNSDIVIRAKVVGKKLVKEGPFGTLVYTIKQMKMYRGFTKMPNVTYIHTEASESLCGLNLTVNKYQYLLTGRVYNGTMYTGLCNFVERWDQLTLSQRKGLNYTYHLGCNCKIKSCYYLPCFVTSKNECLWTDMLSNFGYPGYQSKHYACIRQKGGYCSWYRGWAPPDKSIINATDP	152
v82‐Fc (v82 with Fc fused in the C‐terminus) (Fc fusion, additional glycosylation sites) CTCSPSHPQDAFCNSDIVIRAKVVGKKLVKEGPFGTLVYTIKQMKMYRGFTKMPNVTYIHTEASESLCGLNLTVNKYQYLLTGRVYNGTMYTGLCNFVERWDQLTLSQRKGLNYTYHLGCNCKIKSCYYLPCFVTSKNECLWTDMLSNFGYPGYQSKHYACIRQKGGYCSWYRGWAPPDKSIINATDP	77

With those in mind, consider the next binder.
Quick note, IC50 of inhibition of rat MMP9 activity (cleavage of 5-FAM/QXL 520 FRET peptide, 37°C) for v2‐PEG (TIMP3v2 PEGylated with 20 kDa polyethylene glycol) (natural protein, 20 kDa polyethylene glycol (PEG), site not stated; additional glycosylation site (F34N)) CTCSPSHPQDAFCNSDIVIRASVVGKKLVKEGPNGTLVYTIKQMKMYRGFTKMPHVQYIHTEASESLCGLKLEVNKYQYLLTGRVYDGKMYTGLCNFVERWDQLTLSQRKGLNYRYHLGCNCKIKSCYYLPCFVTSKNECLWTDMLSNFGYPGYQSKHYACIRQKGGYCSWYRGWAPPDKSIINATDP landed at 60
